// reported TGI for each item listed
Test system: NCI/ADR-RES ovarian
Test: NCI tumour cell line growth inhibition, 48 h

MOLECULE | MEASUREMENT TARGET | TGI
Cc1c([N+](=O)[O-])oc2ccc3ccccc3c12 | NCI/ADR-RES ovarian | > 100 µM
CC1=NN(c2nc(N)nc(/C=C\c3ccc([N+](=O)[O-])s3)n2)C(C)(C)C1 | NCI/ADR-RES ovarian | > 100 µM
OC(CC(O)(C(F)(F)F)C(F)(F)F)c1ccc(C(O)CC(O)(C(F)(F)F)C(F)(F)F)cc1 (stereo unspecified) | NCI/ADR-RES ovarian | 29.6 µM
CCCCCn1c(C)cc(/C=C\c2ccc3cc(C)ccc3[n+]2C)c1C | NCI/ADR-RES ovarian | > 34.4 µM
O=C1C(Cl)=C(Nc2cccc(O)c2)C(=O)N1Cc1ccc(Cl)cc1Cl | NCI/ADR-RES ovarian | 26.6 µM
CC1=C(C)C(=O)C(C2=CC(=O)C=CC2=O)=C(C2=CC(=O)C=CC2=O)C1=O | NCI/ADR-RES ovarian | > 100 µM
O=C(O)/C(=C\c1ccncc1)c1cccc2ccccc12 | NCI/ADR-RES ovarian | > 100 µM
CCN(Cc1c(Cl)cccc1Cl)c1ccc(CO)c(Cl)c1 | NCI/ADR-RES ovarian | 27.3 µM
Cc1ccc(-c2cc(O)c(-c3ccc(C)cc3C)cc2O)c(C)c1 | NCI/ADR-RES ovarian | 32.9 µM
C=C(c1ccccc1)c1ccccc1-c1cc(-c2ccccc2)cc(-c2ccccc2)n1 | NCI/ADR-RES ovarian | > 100 µM
CCOC(=O)/C=C(\C(=O)OCC)n1ccc(=O)[nH]c1=O | NCI/ADR-RES ovarian | > 93 µM
C=CC(COC(c1ccccc1)(c1ccccc1)c1ccccc1)N(CC)CC (stereo unspecified) | NCI/ADR-RES ovarian | 18.2 µM
CCC[C@@H]1C(=O)N=C(N)N1C(=O)OCc1ccccc1 | NCI/ADR-RES ovarian | > 100 µM
Cc1ccc(NC(=O)CSC(N)=O)cc1C | NCI/ADR-RES ovarian | > 100 µM
c1ccc(CN2CCN3CCN(CC2)CCN(Cc2ccccc2)CC3)cc1 | NCI/ADR-RES ovarian | > 100 µM
Cc1ccc(-n2cc([Si](C)(C)C)nn2)s1 | NCI/ADR-RES ovarian | > 100 µM
Cc1cccc(Cc2cnc(NC(=O)CCc3ccc(C)o3)s2)c1 | NCI/ADR-RES ovarian | > 100 µM
CCSc1ccc(C2C(Br)C(=O)N2c2cc(OC)c(OC)c(OC)c2)cc1 (stereo unspecified) | NCI/ADR-RES ovarian | > 100 µM
COc1cc2c3c(n(C)c(=O)c2cc1OC)-c1cc2c(cc1/C3=C\CCNCCCN)OCO2 | NCI/ADR-RES ovarian | > 100 µM
COC(=O)C1=C(C(=O)OC)SC2(S1)C(C(=O)OC)=C(C(=O)OC)Sc1c2ssc1=NC(C)(C)C | NCI/ADR-RES ovarian | 7.73 µM
O=C(O)Cn1cc([N+](=O)[O-])c(=O)c2ccccc21 | NCI/ADR-RES ovarian | > 100 µM
N#CC(C#N)=C1C(=O)NC(N)=C1C#N | NCI/ADR-RES ovarian | > 100 µM
Cc1cc(S(=O)(=O)/N=C(/NN)NNc2cccc(C(F)(F)F)n2)c(S)cc1Cl | NCI/ADR-RES ovarian | 46.2 µM
C=C1C(=O)OC2CC3(C)OC3CC/C(C)=C/C(OC(C)=O)C12 (stereo unspecified) | NCI/ADR-RES ovarian | 30.1 µM
NCCCNCCCCN1CC1 | NCI/ADR-RES ovarian | > 20.7 µM
Oc1c(CN2CCN(c3ccccc3)CC2)cc(Br)c2cccnc12 | NCI/ADR-RES ovarian | > 100 µM
CC(=C/c1ccccc1)/C=C1/NC(=S)N(/C=C2\C(=O)Oc3ccccc3C2=O)C1=O | NCI/ADR-RES ovarian | > 100 µM
O=C(CSc1nc2ccccc2c(=O)n1-c1ccccc1)N=Nc1c(O)[nH]c2ccc(F)cc12 | NCI/ADR-RES ovarian | 5.48 µM
CC(=O)/C(=C/N1CCNC1=S)C(=O)Nc1ccccc1C | NCI/ADR-RES ovarian | > 100 µM
O=c1[nH]c(=S)c2cc3c(=S)[nH]c(=O)n(CCO)c3nc2n1CCO | NCI/ADR-RES ovarian | > 100 µM
Cc1cc(C(=O)c2ccccc2)c(C)c2c1[nH]c1ccc(Cl)cc12 | NCI/ADR-RES ovarian | > 100 µM
C[C@H]1COC2=C1C(=O)C(=O)c1c2ccc2c1CCCC2(C)C | NCI/ADR-RES ovarian | 24 µM
S=c1[nH]c2ccc(I)cc2c(=S)n1Cc1ccccc1 | NCI/ADR-RES ovarian | 25.5 µM
C=C1C(=O)O[C@H]2[C@H]1CC/C(COC(=O)NCc1ccc(Cn3c(=O)sn(-c4ccccc4)c3=O)cc1)=C\CC[C@@]1(C)O[C@@H]21 | NCI/ADR-RES ovarian | 63.3 µM
COc1ccc2ccc3oc([N+](=O)[O-])cc3c2c1 | NCI/ADR-RES ovarian | 2.22 µM
CN(Cc1cc(Cl)c(Cl)cc1NC(=O)CN)[C@H]1CCCC[C@@H]1N1CCCC1 | NCI/ADR-RES ovarian | > 100 µM

###

System: NCI-H460 lung
Assay: NCI tumour cell line growth inhibition, 48 h
QUANTITY MEASURED: TGI

COMPOUND | MEASUREMENT TARGET | OBSERVED VALUE
Oc1ccc(N=Nc2ccccn2)c(O)c1 | NCI-H460 lung | > 100 µM
O=C(O)C(Oc1nc(=S)[nH]c(=S)[nH]1)(c1ccc(Cl)cc1)c1ccc(Cl)cc1 | NCI-H460 lung | > 100 µM
Cc1cccc(Cc2cnc(NC(=O)CCc3ccc(C)o3)s2)c1 | NCI-H460 lung | > 100 µM
Cc1c([N+](=O)[O-])oc2ccc3ccccc3c12 | NCI-H460 lung | > 100 µM
Cc1ccc(NC(=O)CSC(N)=O)cc1C | NCI-H460 lung | > 100 µM
CN(C)/N=N/c1nc[nH]c1C(N)=O | NCI-H460 lung | > 1000 µM
N#CC(C#N)=C1C(=O)NC(N)=C1C#N | NCI-H460 lung | > 100 µM
COc1ccc(C2=NN=C3C(c4ccccc4)=Nc4ccccc4N3C2)cc1 | NCI-H460 lung | > 100 µM
NC(CSSCC(N)Cc1ccccc1)Cc1ccccc1 (configuration not stated) | NCI-H460 lung | > 100 µM
CCCCCCCCCCCCCCCCCC(=O)Nc1ccn(C2OC(CO)C(O)C2O)c(=O)n1 (configuration not stated) | NCI-H460 lung | > 100 µM
CC(=O)N/C(=C\c1ccc(Cc2nc3c([nH]2)C(=O)c2ccccc2C3=O)cc1)c1nc2c([nH]1)C(=O)c1ccccc1C2=O | NCI-H460 lung | > 100 µM
COc1ccccc1C(=O)N(C)c1ccc(Cl)c(C(=O)OC(C)C)c1 | NCI-H460 lung | > 100 µM

###

// reported TGI for each item listed
System: IGROV1 ovarian
Assay: NCI tumour cell line growth inhibition, 48 h

MOLECULE | TGI
CCOc1ccc2c(c1)c(=O)c1c(NCCN(CC)CC)ccc3nnn2c31 | 30.3 µM
CCC[C@@H]1C(=O)N=C(N)N1C(=O)OCc1ccccc1 | > 100 µM
C=CCC(C(=O)Nc1cccc2[nH]cnc12)C(=O)OCC (stereo not given) | > 100 µM
O=c1c2ccccc2nc(N/N=C/c2ccccc2O)n1-c1ccccc1 | > 100 µM
Cc1ccc(N=C2C(=Nc3ccc(C)cc3)N(c3ccc(C)cc3)C(=S)N2C(=O)c2ccccc2)cc1 | > 100 µM
CCC[CH2][Sn]1([CH2]CCC)[O]CC(C)[O]1 (stereo not given) | 3.94 µM
CCOC(=O)[C@@H]1ON2OC(OC3CCCC3(c3ccccc3)c3ccccc3)C(OC(C)=O)[C@H]3OC(=O)[C@@H]1C32 (stereo not given in full) | > 100 µM
O=C(CCCCC(=O)N/N=C\c1ccccc1O)N/N=C\c1ccccc1O | > 100 µM
COc1ccc(Nc2nc(N)c(C(=O)c3cccs3)s2)cc1 | 41.5 µM
O=C(CCC(=O)C1CCC/C1=N/O)Nc1ccc(Cl)cc1 (stereo not given) | > 100 µM
Oc1ccc(Cl)cc1C1=NC(/N=C\c2ccccc2)=NC(c2ccccc2)C1 (stereo not given) | > 100 µM
CCSc1ccc(C2C(Br)C(=O)N2c2cc(OC)c(OC)c(OC)c2)cc1 (stereo not given) | 20.9 µM
Cc1ccc(CCC(=O)C(=O)O)s1 | > 100 µM
Cc1cn(S(=O)(=O)c2ccccc2)c2c(OCc3ccccc3)cc(NS(C)(=O)=O)cc12 | > 100 µM
CC(=O)c1cc(O)c2ccccc2c1O | 29.3 µM
O=C(CC/C(CC(=O)c1ccc(Br)cc1)=N\O)Nc1ccc(Cl)c(Cl)c1 | > 100 µM
Cc1ccc([C@]2(C)CC[C@H](C)/C2=C\Br)c(O)c1 | 12.4 µM
COc1ccc(N2NC(c3ccccc3)(c3ccccc3)C(C)C2=O)cc1 (stereo not given) | > 100 µM
CCCCCCCCCCCCCCCCCC(=O)Nc1ccn(C2OC(CO)C(O)C2O)c(=O)n1 (stereo not given) | > 100 µM
CC(=O)c1c2n(n(-c3ccccc3)c1=O)C(=O)c1nccnc1-2 | > 100 µM
Fc1cc(-c2cc(-c3ccc4c(c3)OCO4)n[nH]2)c(Cl)cc1Cl | 7.5 µM
O=C(O)/C(=C\c1ccncc1)c1cccc2ccccc12 | > 100 µM
Oc1cc(Br)cc2cc(Cl)cnc12 | 27.1 µM
C=CCn1c(-c2ccc([N+](=O)[O-])cc2)csc1=N | > 100 µM
O=C1NCCS(=O)(=O)N2CCC[C@@H]12 | > 100 µM
Cc1cc(Nc2cc(N)ncn2)c(=O)n2c1C(=O)NC21CCCCC1 | > 100 µM
O=C(/C=C\c1cccc2ccccc12)c1cccc2ccccc12 | 25.9 µM
CC(C)=CCCC(C)C1=C(O)C(=O)C(C)=CC1=O (stereo not given) | 32.8 µM
Oc1ccc(Cc2cc(Cl)cc(Cl)c2O)cc1Cl | 34.1 µM
CC(C)(C)CC(C)(C)c1ccc(O)c(C[N+](C)(C)[O-])c1 | > 100 µM
O=c1oc2c(C(F)(F)F)cccc2cc1-c1csc(Nc2ccc(OCCF)cc2)n1 | > 37 µM
OC1C[C@H](c2ccccc2)C2(C(O)c3ccccc3C2O)[C@@H](c2ccccc2)C1 (stereo not given in full) | > 100 µM
O=C1C(Cl)=C(Nc2cccc(C(F)(F)F)c2)C(=O)N1Cc1ccc(Cl)cc1 | > 48.5 µM
O=C1OCC2=C1C(c1ccccc1)c1cc3c(cc1N2CCO)OCCO3 (stereo not given) | 1.41 µM
O=[N+]([O-])c1ccc(C=NC23CC4CC(CC(C4)C2)C3)cc1 | > 100 µM
Cn1c(O)c(C=Nc2ccccc2Cl)c(=O)n(C)c1=O | > 100 µM
CCOC(=O)N1CCC(=C2c3ccc(Cl)cc3CCc3cccnc32)CC1 | 8.22 µM
S=c1[nH]c2ccc(I)cc2c(=S)n1Cc1ccccc1 | 27.6 µM
CCCC(=O)[O-].N.N.N.N.N.[Co+3].[O-][Cl+3]([O-])([O-])[O-] | > 100 µM
CC1(C)CCc2c(c(N=Nc3ccc(F)cc3)c3ccccc3c2O)O1 | > 100 µM
